Assay: small-molecule microarray binders of probe aEGFR, primary screen, biochemical, biotinylated probe, 635/667 nm fluorescence (AID 1097);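 note: probe is a biotinylated anti-EGFR antibody binding compounds printed on slides; score combines fluorescence near 667 nm and signal to noise of each spot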
Conditions: higher = more signal
Quick reference: composite z-score of the listed items.
In your answer, state the number alone without any accompanying words.

Solved cases (10 shown):
>>> valuemeasured("CC1=C2[C@@H](CCc3ccccc3)OB(O)C[C@@H]2n2c(=O)n(-c3ccccc3)c(=O)n2C1")
-0.111
>>> valuemeasured("CCCN1C(=O)[C@@]2(CCC(=O)OC(C)(C)C)N=C(c3ccc(OCCCO)cc3)O[C@H]2c2ccccc21")
-0.0371
>>> valuemeasured("NCCCCCCNC(=O)[C@H]1C[C@H]2C(=O)NCC(=O)N2[C@H]1c1cccc(OCCO)c1")
-0.034
>>> valuemeasured("COC(=O)c1ccc(C23CC2(C(NP(=O)(c2ccccc2)c2ccccc2)c2ccccc2)C3)cc1 (stereo not given)")
0.0632
>>> valuemeasured("C=CCC(OC(C)=O)[C@@H]1[C@@H](N(Cc2cc3ccccc3o2)C(=O)c2ccc(C)cc2)c2cc(OCCCO)ccc2N1C(=O)c1ccc2ccccc2c1 (stereo not given in full)")
-0.0536
>>> valuemeasured("C=CCC(OC(C)=O)[C@@H]1[C@@H](N(Cc2cccc3ccccc23)C(=O)c2ccc(C)cc2)c2cc(OCCCO)ccc2N1C(=O)Cc1ccc(OC)cc1 (stereo not given in full)")
-0.0828
>>> valuemeasured("O=C1C=CC(=O)[C@@H]2CC(COc3ccccc3)=C3[C@@H](CCc4ccccc4)OB(O)C[C@@H]3[C@H]12")
0.0338
>>> valuemeasured("COC(=O)[C@@]1(Cc2ccccc2)[C@H]2c3cc(C(=O)N(C)C)n(Cc4cc(C)n(C)n4)c3C[C@H]2CN1C(=O)c1ccccc1")
0.238
>>> valuemeasured("CC(C)(C)OC(=O)CC[C@@]1(C(=O)O)N=C(c2ccc(OCCCO)cc2)O[C@@H]1c1ccccc1N=[N+]=[N-]")
0.325
>>> valuemeasured("Cc1ccc(S[C@]2(C(=O)NCc3ccccc3)CC(=O)N(Cc3ccccc3)[C@@H]2c2ccc(CO)cc2)cc1")
-0.272

Prompt: Recorded composite z-score for COCCCNC(=O)[C@@]1(CCC(=O)OC(C)(C)C)N=C(c2ccc(OCCCO)cc2)O[C@H]1c1ccccc1CN=[N+]=[N-] , please?
Response: 0.305

Prompt: Recorded composite z-score for O=C1OCCC=C[C@H]2OC34C=CCN(Cc5ccccc5)C(=O)[C@H]3N(CCCCCO)C(=O)[C@@H]4C12 (stereo not given in full) , please?
Response: -0.252

Prompt: Recorded composite z-score for C=CC[C@]1(C(=O)N2CCOCC2)N=C(c2ccc(OCCCO)cc2)O[C@H]1c1ccccc1 , please?
Response: -0.165

Prompt: Recorded composite z-score for O=C1C2C=CC(C(O)c3ccc(B(O)O)cc3)N(Nc3ccccc3)C2C(=O)N1c1ccccc1 (stereo not given) , please?
Response: -0.041

Prompt: Recorded composite z-score for C=CCC(OC(C)=O)[C@@H]1[C@@H](N(Cc2cccc3ccccc23)C(=O)c2cccc3ccccc23)c2cc(OCCCO)ccc2N1C(=O)c1ccc2ccccc2n1 (stereo not given in full) , please?
Response: -0.0549

###

Test: small-molecule microarray binders of probe aLefty2, primary screen, biochemical, biotinylated probe, 635/667 nm fluorescence (AID 1094);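 note: score merges spot fluorescence near 667 nm with spot signal-to-noise ratio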
Settings: higher = more signal
readoutType: composite z-score
In your answer, state the number alone without any accompanying words.

>>> valuemeasured("C=CCC(OC(C)=O)[C@@H]1[C@@H](N(Cc2ccc(-c3ccccc3)cc2)C(=O)Cc2ccc(OC)cc2)c2cc(OCCCO)ccc2N1C(=O)c1ccc2ccccc2n1 (some centres undefined)")
0.0171
>>> valuemeasured("CN(C)C(=O)[C@@]1(CCC(=O)OC(C)(C)C)N=C(c2ccc(OCCCO)cc2)O[C@H]1c1ccccc1")
0.346
>>> valuemeasured("O=C1C[C@@](C(=O)NC2CC2)(c2ccc([N+](=O)[O-])cc2)[C@@H](c2ccc(CO)cc2)N1CC12CC3CC(CC(C3)C1)C2")
0.0469
>>> valuemeasured("O=c1oc(-c2ccccc2)nc2cc(Br)ccc12")
-0.0478
>>> valuemeasured("COCCOC(=O)N1C(=O)[C@@]2(c3cc(C#CCNC(N)=O)ccc31)[C@H](c1ccc(O)cc1)N1[C@H](c3ccccc3)[C@H](c3ccccc3)OC(=O)[C@H]1[C@@H]2C(=O)NC[C@H](O)c1ccccc1")
0.434

Prompt: Recorded composite z-score for O=C1OCCC=C[C@H]2OC34C=CCN(Cc5ccccc5)C(=O)[C@H]3N(CCCCCCO)C(=O)[C@@H]4C12 (some centres undefined) , please?
Response: -0.42

Prompt: Recorded composite z-score for CC(C)CNC(=O)[C@@H]1c2ccccc2C(=O)N(Cc2cc(C(F)(F)F)cc(C(F)(F)F)c2)[C@H]1c1ccc(CO)cc1 , please?
Response: 0.104

###

Target: Albumin (Bos taurus) (UniProt P02769)
Sequence (P02769 whole entry, looked up): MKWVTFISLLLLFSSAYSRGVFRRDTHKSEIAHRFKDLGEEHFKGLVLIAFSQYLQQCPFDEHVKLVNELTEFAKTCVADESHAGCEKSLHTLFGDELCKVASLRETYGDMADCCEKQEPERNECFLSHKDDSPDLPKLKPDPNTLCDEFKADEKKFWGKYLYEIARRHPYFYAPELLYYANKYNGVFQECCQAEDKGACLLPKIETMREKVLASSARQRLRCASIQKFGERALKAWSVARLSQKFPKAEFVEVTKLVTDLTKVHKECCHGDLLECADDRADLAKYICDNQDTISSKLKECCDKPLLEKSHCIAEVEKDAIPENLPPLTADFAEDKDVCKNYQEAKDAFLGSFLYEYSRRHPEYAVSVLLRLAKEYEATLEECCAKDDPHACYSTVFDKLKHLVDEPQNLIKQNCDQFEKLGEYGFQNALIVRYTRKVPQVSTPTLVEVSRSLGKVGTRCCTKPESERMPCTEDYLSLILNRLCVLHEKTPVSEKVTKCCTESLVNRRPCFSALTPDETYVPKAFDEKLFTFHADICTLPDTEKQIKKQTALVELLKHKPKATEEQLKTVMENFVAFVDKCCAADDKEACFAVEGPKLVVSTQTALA
Experiment: bovine serum albumin binders on microarray, profiling panel, artefact control for SMM control protein annotation, biochemical, small-molecule microarray, Alexa647 label, 635/667 nm fluorescence (AID 1118);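 note: score merges 667 nm emission intensity and signal-to-noise per printed compound spot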
Settings: BSA-A647 binding, fluorescence 635 nm, higher = more signal
readoutType: composite z-score
In your answer, state the number alone without any accompanying words.

Solved cases (5 shown):
>>> valuemeasured("COCCCNC(=O)[C@@]1(C)c2ccccc2C(=O)N(Cc2cc(C(F)(F)F)cc(C(F)(F)F)c2)[C@H]1c1ccc(CO)cc1")
-0.0502
>>> valuemeasured("Cc1ccc(S[C@]2(C(=O)O)CC(=O)N(C3Cc4ccccc4C3)[C@@H]2c2ccc(CO)cc2I)cc1")
-0.133
>>> valuemeasured("COC(=O)[C@@]1(Cc2ccc(OC)cc2)[C@H]2c3cc(C(=O)N(C)C)n(Cc4c(OC)[nH]cc(C)c4=O)c3C[C@H]2CN1C(=O)c1ccccc1")
0.589
>>> valuemeasured("CCOC(=O)C1=C[C@@H](CC)N(S(=O)(=O)c2ccc(C)cc2)[C@H]1c1ccccc1")
0.874
>>> valuemeasured("C[N+](C)(C)CCCCCCNC(=O)[C@H]1C[C@H]2C(=O)N3CCC[C@H]3C(=O)N2[C@H]1c1ccc(O)cc1")
-0.608

Prompt: // fetch Albumin (Bos taurus) (UniProt P02769) composite z-score for C=C[C@H](COC(C)=O)N(Cc1ccc(OC(C)=O)c(OC)c1)S(=O)(=O)c1ccc(Br)cc1
Response: 0.777

Prompt: // fetch Albumin (Bos taurus) (UniProt P02769) composite z-score for N#Cc1ccc(NN2C(C(O)c3ccc([N+](=O)[O-])cc3)C=CC3C(=O)N(c4ccccc4)C(=O)C32)cc1 (configuration not stated)
Response: 0.552

###

Target: NADPH oxidase 5 (Homo sapiens) (UniProt Q96PH1)
Sequence (Q96PH1 whole entry, looked up): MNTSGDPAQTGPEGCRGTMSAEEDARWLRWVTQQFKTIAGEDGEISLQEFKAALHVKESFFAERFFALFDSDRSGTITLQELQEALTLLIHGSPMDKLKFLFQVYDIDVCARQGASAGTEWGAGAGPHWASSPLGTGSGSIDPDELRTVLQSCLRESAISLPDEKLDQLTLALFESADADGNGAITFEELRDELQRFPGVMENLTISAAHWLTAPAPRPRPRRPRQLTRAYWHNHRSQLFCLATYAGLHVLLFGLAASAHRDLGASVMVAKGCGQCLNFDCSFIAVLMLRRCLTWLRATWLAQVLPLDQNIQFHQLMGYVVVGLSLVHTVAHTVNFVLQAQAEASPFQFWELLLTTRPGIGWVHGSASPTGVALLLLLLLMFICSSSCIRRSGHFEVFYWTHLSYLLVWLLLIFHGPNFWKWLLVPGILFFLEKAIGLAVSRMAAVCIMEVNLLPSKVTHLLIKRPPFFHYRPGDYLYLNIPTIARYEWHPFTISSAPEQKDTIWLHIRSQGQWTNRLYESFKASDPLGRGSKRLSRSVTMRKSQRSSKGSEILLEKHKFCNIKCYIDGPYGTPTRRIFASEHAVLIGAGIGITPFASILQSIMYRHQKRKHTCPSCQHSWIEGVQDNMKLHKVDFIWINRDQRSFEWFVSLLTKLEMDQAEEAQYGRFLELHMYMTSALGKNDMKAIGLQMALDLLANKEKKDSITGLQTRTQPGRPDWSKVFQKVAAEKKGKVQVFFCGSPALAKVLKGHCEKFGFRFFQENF
Experiment: NOX5-dependent H2O2 signal modulators, primary screen, NOX inhibitor project, cell-based, HEK293-NOX5, Amplex Red fluorescence (AID 1161)
Conditions: HEK293-NOX5, ionomycin, 45 min, higher = more signal
Given measured z-score, output condition met if it is greater than or equal to 0.3 and condition not met if not.

>>> class("O=C1N(CCS(=O)(=O)c2ccccc2)Cc2ccccc2C[C@]12N=C(c1ccc(OCCCO)cc1)O[C@@H]2c1ccccc1")
"condition not met"
>>> class("COc1cc2c(cc1OC)CN(C(=O)[C@@H]1[C@H]3C(=O)O[C@H](c4ccccc4)[C@H](c4ccccc4)N3[C@H](c3ccccc3OCCO)[C@@]13C(=O)Nc1ccc(C#CCNC(N)=O)cc13)CC2")
"condition not met"
>>> class("CN(C)CCCCCCNC(=O)[C@H]1C[C@H]2C(=O)N[C@@H](CCCCN)C(=O)N2[C@H]1c1ccc(O)cc1")
"condition met"
>>> class("O=C1c2ccccc2[C@@]2(Cc3ccccc3N(Cc3ccccc3)C2=O)[C@H](c2ccc(CO)cc2)N1C1CCCCC1")
"condition not met"
>>> class("COCCOC(=O)N1C(=O)[C@@]2(c3cc(C#CCC(C(=O)OC)C(=O)OC)ccc31)[C@H](c1ccccc1OCCO)N1[C@H](c3ccccc3)[C@H](c3ccccc3)OC(=O)[C@H]1[C@@H]2C(=O)N1CCc2cc(OC)c(OC)cc2C1")
"condition met"

Prompt: Check this molecule for z-score at or above 0.3: CN(C)CCCNC(=O)[C@@]1(Cc2ccccc2I)c2ccccc2C(=O)N(Cc2ccccc2C(F)(F)F)[C@H]1c1ccc(CO)cc1
Response: condition not met

Prompt: Check this molecule for z-score at or above 0.3: Cc1ccc(S[C@]2(C(=O)NCc3ccccc3)CC(=O)N(Cc3ccccc3Cl)[C@@H]2c2ccc(CO)cc2I)cc1
Response: condition met

Prompt: Check this molecule for z-score at or above 0.3: O=C1C[C@]2(c3ccc([N+](=O)[O-])cc3)C(=O)N(CC(F)(F)F)c3cc(CO)ccc3[C@H]2N1CC12CC3CC(CC(C3)C1)C2
Response: condition not met

Prompt: Check this molecule for z-score at or above 0.3: CCCN1C(=O)[C@@]2(CCC(=O)OC(C)(C)C)N=C(c3ccc(OCCCO)cc3)O[C@H]2c2ccccc21
Response: condition not met

Prompt: Check this molecule for z-score at or above 0.3: COC(=O)c1c(CC[C@@H](CO)NC(=O)N[C@@H](Cc2ccccc2)Cn2cc(C3(O)CCCCC3)nn2)oc(C(C)=O)c1C(=O)OC
Response: condition not met

Prompt: Check this molecule for z-score at or above 0.3: C=CCNC(=O)[C@H]1[C@@H]2C(=O)O[C@@H](c3ccccc3)[C@@H](c3ccccc3)N2[C@@H](c2ccc(O)cc2)[C@]12C(=O)N(C(=O)OCCOC)c1ccc(C#CCCO)cc12
Response: condition met

Prompt: Check this molecule for z-score at or above 0.3: COC(=O)[C@@]1(Cc2ccc(F)cc2)[C@H]2c3cc(C(=O)N(C)C)n(CCc4ccccn4)c3C[C@H]2CN1C(=O)c1ccccc1
Response: condition not met
